Quick note: these are IC50 numbers for system: flkGST (Homo sapiens)
Sequence (P35968 786-1356 limits assumed): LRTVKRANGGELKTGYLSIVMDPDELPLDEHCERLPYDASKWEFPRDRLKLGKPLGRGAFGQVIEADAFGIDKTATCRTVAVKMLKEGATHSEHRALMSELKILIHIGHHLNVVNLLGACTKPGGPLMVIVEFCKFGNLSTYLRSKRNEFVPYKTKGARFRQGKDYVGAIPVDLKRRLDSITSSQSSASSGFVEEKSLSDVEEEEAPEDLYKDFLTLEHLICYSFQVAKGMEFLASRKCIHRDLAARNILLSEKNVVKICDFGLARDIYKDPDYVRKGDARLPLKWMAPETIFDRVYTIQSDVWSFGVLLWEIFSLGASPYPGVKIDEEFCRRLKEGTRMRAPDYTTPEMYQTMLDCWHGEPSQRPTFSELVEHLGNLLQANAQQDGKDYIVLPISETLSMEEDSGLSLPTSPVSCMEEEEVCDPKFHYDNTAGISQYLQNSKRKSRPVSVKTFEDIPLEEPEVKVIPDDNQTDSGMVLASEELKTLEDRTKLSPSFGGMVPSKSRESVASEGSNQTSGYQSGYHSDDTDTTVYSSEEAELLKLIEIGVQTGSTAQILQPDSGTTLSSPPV
experimental.endpoint: IC50 (µM)

- compound.smiles: "O=C(O)CCc1c(/C=C2\\C(=O)Nc3ccc(Br)cc32)[nH]c2c1CCCC2"
  measured.on: "flkGST (Homo sapiens)"
  experimental.endpoint: "IC50"
  reported: 0.03
- compound.smiles: "CNS(=O)(=O)c1ccc2c(c1)/C(=C/c1c(C)[nH]c3ccccc13)C(=O)N2"
  measured.on: "flkGST (Homo sapiens)"
  experimental.endpoint: "IC50"
  reported: 12.5
- compound.smiles: "CCOC(=O)c1[nH]c(/C=C2\\C(=O)Nc3cccc(C)c32)c(CCC(=O)O)c1C"
  measured.on: "flkGST (Homo sapiens)"
  experimental.endpoint: "IC50"
  reported: 7.56
- compound.smiles: "Cc1c[nH]c(/C=C2\\C(=O)Nc3ccc(Br)cc32)c1CCC(=O)O"
  measured.on: "flkGST (Homo sapiens)"
  experimental.endpoint: "IC50"
  reported: 0.11
- compound.smiles: "CN(C)CCCc1c(/C=C2\\C(=O)Nc3cccc(CCO)c32)[nH]c2ccccc12"
  measured.on: "flkGST (Homo sapiens)"
  experimental.endpoint: "IC50"
  reported: 0.2
- compound.smiles: "CCOC(=O)c1c(C)[nH]c(/C=C2\\C(=O)Nc3ccc(S(N)(=O)=O)cc32)c1CCCN(C)C"
  measured.on: "flkGST (Homo sapiens)"
  experimental.endpoint: "IC50"
  reported: 8.18
- compound.smiles: "CCOC(=O)c1c(C)[nH]c(/C=C2\\C(=O)Nc3ccc(S(N)(=O)=O)cc32)c1CCCN1CCN(C)CC1"
  measured.on: "flkGST (Homo sapiens)"
  experimental.endpoint: "IC50"
  reported: 13.9
- compound.smiles: "CN(C)CCCc1c(/C=C2\\C(=O)Nc3ccccc32)[nH]c2c1CCCC2"
  measured.on: "flkGST (Homo sapiens)"
  experimental.endpoint: "IC50"
  reported: 5.84

====

Catalogue of pIC50 values
# measured.on: Myc-GyrB-FGFR fusion protein (Homo sapiens, UniProt P11362)
# Sequence (P11362 478-767 limits assumed): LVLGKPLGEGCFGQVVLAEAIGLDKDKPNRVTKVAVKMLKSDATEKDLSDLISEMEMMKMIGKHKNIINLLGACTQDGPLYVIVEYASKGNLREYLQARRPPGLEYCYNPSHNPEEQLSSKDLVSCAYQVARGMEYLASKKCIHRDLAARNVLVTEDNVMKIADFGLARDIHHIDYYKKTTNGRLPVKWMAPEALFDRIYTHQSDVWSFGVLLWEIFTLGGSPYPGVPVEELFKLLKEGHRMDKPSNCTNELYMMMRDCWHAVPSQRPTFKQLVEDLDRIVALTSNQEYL
# protocol.description: Biochemical FGFR assay (ELISA)
# stated.conditions: read-out: bio fgfR1 IC50
pIC50: −log10 of the molar value.
experimental.endpoint: pIC50

- compound.smiles: "COc1ccc2c(c1)NC(=O)/C2=C\\c1[nH]c2c(c1CCC(=O)O)CCCC2"
  experimental.endpoint: "pIC50"
  rel: "="
  reported: 7.30
- compound.smiles: "COc1cccc(-c2ccc3c(c2)NC(=O)/C3=C\\c2[nH]c3c(c2CCC(=O)O)CCCC3)c1"
  experimental.endpoint: "pIC50"
  rel: "="
  reported: 6.23
- compound.smiles: "Cc1[nH]c2ccccc2c1/C=C1\\C(=O)Nc2ccc(S(N)(=O)=O)cc21"
  experimental.endpoint: "pIC50"
  rel: "<"
  reported: 4.70
- compound.smiles: "O=C1Nc2cc(Cl)ccc2/C1=C/c1cc2ccccc2[nH]1"
  experimental.endpoint: "pIC50"
  rel: "<"
  reported: 4.70
- compound.smiles: "CCOC(=O)c1[nH]c(/C=C2\\C(=O)Nc3ccccc32)c(CCC(=O)O)c1C"
  experimental.endpoint: "pIC50"
  rel: "<"
  reported: 4.70
- compound.smiles: "Cc1c(/C=C2\\C(=O)Nc3ccccc32)[nH]c2ccccc12"
  experimental.endpoint: "pIC50"
  rel: "<"
  reported: 4.70
- compound.smiles: "Cc1c(/C=C2\\C(=O)Nc3ccc(Cl)cc32)[nH]c2ccccc12"
  experimental.endpoint: "pIC50"
  rel: "<"
  reported: 4.70
- compound.smiles: "CNS(=O)(=O)c1ccc2c(c1)/C(=C/c1ccc3[nH]ccc3c1)C(=O)N2"
  experimental.endpoint: "pIC50"
  rel: "="
  reported: 6.12
- compound.smiles: "CCOC(=O)c1[nH]c(/C=C2\\C(=O)Nc3ccc(OC)cc32)c(CCC(=O)O)c1C"
  experimental.endpoint: "pIC50"
  rel: "="
  reported: 4.89
- compound.smiles: "COc1ccccc1-c1ccc2c(c1)NC(=O)/C2=C\\c1[nH]c(C)cc1CCC(=O)O"
  experimental.endpoint: "pIC50"
  rel: "<"
  reported: 4.70
- compound.smiles: "Nc1ccc2c(c1)/C(=C/c1ccc3[nH]ccc3c1)C(=O)N2"
  experimental.endpoint: "pIC50"
  rel: "="
  reported: 5.34
- compound.smiles: "CCOC(=O)c1[nH]c(/C=C2\\C(=O)Nc3ccc(Br)cc32)c(CCC(=O)O)c1C"
  experimental.endpoint: "pIC50"
  rel: "="
  reported: 4.78
- compound.smiles: "NS(=O)(=O)c1ccc2c(c1)/C(=C/c1cc3ccccc3[nH]1)C(=O)N2"
  experimental.endpoint: "pIC50"
  rel: "<"
  reported: 4.70
- compound.smiles: "CCOC(=O)c1c(C)[nH]c(/C=C2\\C(=O)Nc3ccc(Cl)cc32)c1CCC(=O)O"
  experimental.endpoint: "pIC50"
  rel: "<"
  reported: 4.70
- compound.smiles: "O=C(O)CCc1c(/C=C2\\C(=O)Nc3ncccc32)[nH]c2c1CCCC2"
  experimental.endpoint: "pIC50"
  rel: "="
  reported: 5.64
- compound.smiles: "Cc1ccc2c(c1)/C(=C/c1[nH]c3ccccc3c1C)C(=O)N2"
  experimental.endpoint: "pIC50"
  rel: "<"
  reported: 4.70
- compound.smiles: "CCOC(=O)c1c(C)[nH]c(/C=C2\\C(=O)Nc3cc(-c4ccccc4OC)ccc32)c1CCC(=O)O"
  experimental.endpoint: "pIC50"
  rel: "="
  reported: 4.76
